Measured IC50, listed per entry.
Target: T1, His10/Avi Human IL33-01 (human)
T1 construct: Wild type mature IL-33 with N-terminal 10xHis, Avitag and Factor Xa site; biotinylated by BirA on the Avitag where used biotinylated; reduced form unless treated; also called N-terminal His Avi IL-33; His-Avi human IL-33 wild type
T1 chain: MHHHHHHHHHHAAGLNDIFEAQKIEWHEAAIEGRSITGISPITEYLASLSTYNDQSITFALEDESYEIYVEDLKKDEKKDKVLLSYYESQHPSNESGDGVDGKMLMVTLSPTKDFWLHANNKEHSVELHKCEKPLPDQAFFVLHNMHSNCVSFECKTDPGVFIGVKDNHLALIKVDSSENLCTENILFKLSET
Assay: HTRF epitope competition, IgG titrated; competitor DyLight labelled 33_640117 IgG; 1 hour
Respond numerically; units are nM and should not be typed.

| binder | IC50, nM |
| --- | --- |
| 33_640050 IgG1 (antibody, V domains shown, IgG1; also called ZZ1F7Q-D10) VH: EVQLLESGGGLVQPGGSLRLSCAASGFTFSSYAMSWVRQAPGKGLEWVSAISGSGGSTYYADSVKGRFTISRDNSKNTLYLQMNSLRAEDTAVYYCPRHKFMQLWGGGLRYPFGYWGQGTMVTVSS VL: SYVLTQPPSVSVSPGQTASITCSGERMGDKYAAWYQQKPGQSPVLVIYQDTKRPSGIPERFSGSNSGNTATLTISGTQAMDEADYYCQVWDSSTGVFGGGTKVTVL | 0.3 |

Now, please, on to the next binder.
Would you kindly share the measured IC50 for 33_640084-2 IgG1 (antibody, V domains shown, IgG1) VH: EVQLLESGGGLVQPGGSLRLSCAASGFAFSSYAMSWVRQAPGKGLEWVSAISGSGGSTYYADSVKGRFTISRDNSKNTLYLQMNSLRAEDTAVYYCARQKFMQLWGGGLRYPFGYWGQGTMVTVSS VL: SYVLTQPPSVSVSPGQTASITCSGERMGDKYAAWYQQKPGQSPVLVIYRDTKRPSGIPERFSGSNSGNTATLTISGTQAMDEADYYCQVWRDDSPIFGGGTKVTVL ?
0.3
